Origin of the recorded values: paper PMC12392869

Tested system: T1, integrin α5β1 on cells (human (endogenous in K562 and MCF10A), UniProt P08648 42-1049; P05556 21-798)
T1 construct: integrin α5 subunit, endogenous; integrin β1 subunit, endogenous; also called intact α5β1; cellular α5β1; source: endogenous, on K562 cells (flow cytometry) and on MCF10A Cas-mScarlet cells (TIRF microscopy)
T1 sequence (P08648 42-1049, chain 1 of 2): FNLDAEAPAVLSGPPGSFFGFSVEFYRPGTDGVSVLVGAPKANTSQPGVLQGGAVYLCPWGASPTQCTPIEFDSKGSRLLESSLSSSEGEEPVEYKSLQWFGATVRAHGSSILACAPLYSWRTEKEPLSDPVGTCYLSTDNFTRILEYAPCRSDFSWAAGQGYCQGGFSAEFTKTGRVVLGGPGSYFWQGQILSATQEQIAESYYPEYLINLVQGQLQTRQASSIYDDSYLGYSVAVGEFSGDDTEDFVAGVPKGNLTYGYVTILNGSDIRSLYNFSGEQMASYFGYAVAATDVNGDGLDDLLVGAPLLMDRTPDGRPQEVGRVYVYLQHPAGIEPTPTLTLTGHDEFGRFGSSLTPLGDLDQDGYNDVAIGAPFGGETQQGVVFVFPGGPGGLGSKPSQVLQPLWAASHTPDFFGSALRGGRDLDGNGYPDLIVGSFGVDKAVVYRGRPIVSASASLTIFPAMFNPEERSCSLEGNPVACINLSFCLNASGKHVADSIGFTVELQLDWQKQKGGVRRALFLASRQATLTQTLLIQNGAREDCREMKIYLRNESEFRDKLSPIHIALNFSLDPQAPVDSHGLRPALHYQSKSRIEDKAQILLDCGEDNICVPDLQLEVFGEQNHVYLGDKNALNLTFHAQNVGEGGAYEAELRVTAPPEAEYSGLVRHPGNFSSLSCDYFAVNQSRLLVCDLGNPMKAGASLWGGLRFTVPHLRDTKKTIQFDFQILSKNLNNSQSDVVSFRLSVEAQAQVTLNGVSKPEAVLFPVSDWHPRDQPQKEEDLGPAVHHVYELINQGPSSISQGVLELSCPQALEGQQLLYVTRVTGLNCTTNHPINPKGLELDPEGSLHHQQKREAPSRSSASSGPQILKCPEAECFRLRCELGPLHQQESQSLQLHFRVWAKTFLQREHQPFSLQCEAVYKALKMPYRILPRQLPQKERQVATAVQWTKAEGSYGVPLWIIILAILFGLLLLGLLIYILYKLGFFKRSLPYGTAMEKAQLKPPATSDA
T1 sequence (P05556 21-798, chain 2 of 2): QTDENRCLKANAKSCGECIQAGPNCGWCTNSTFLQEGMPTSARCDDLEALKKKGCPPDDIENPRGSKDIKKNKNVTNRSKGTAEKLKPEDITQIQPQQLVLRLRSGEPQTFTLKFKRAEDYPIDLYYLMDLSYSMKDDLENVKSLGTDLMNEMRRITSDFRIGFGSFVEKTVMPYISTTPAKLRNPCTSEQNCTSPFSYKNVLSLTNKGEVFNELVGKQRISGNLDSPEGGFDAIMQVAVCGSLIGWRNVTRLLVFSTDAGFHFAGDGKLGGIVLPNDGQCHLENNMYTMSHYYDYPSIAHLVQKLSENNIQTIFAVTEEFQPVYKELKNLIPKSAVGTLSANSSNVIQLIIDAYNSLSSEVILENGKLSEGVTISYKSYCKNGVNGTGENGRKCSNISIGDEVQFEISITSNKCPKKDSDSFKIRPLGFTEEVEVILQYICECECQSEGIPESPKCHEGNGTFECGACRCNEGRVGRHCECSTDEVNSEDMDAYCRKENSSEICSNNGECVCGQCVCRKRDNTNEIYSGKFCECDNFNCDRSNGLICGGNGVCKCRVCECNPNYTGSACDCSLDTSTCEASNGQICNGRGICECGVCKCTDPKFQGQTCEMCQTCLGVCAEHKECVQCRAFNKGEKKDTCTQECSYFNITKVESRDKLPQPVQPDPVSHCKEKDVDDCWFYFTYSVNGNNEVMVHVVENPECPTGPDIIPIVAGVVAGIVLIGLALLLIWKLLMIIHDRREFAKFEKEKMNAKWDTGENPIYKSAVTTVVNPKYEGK
Protocol text: flow cytometry on cells; competition: unlabelled competitor titrated against 5 nM CF647-NeoNectin on K562 cells, L15 medium with 1% BSA, 2 h at room temperature; KD = EC50/(1 + CL/KD,L)
Experimental context: one partner purified

{"Binder": "GRRGDGATGH (source: synthetic peptide) [RGD peptide (GRRGDGATGH)]", "Kd / µM": 150}
